Consider the following compounds; for each one, report its Bliss excess.
- Tested on: KYSE-220 (Esophageal Squamous Cell Carcinoma);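 note: after 72 h of two-drug dosing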
- experiment-summary: Bliss excess, mean over the matrix (fraction); higher = more synergy
Give only the figure.

Recorded result, CN(CCO)CC[C@H](CSc1ccccc1)Nc1ccc(S(=O)(=O)NC(=O)c2ccc(N3CCC([C@@H](O)c4ccccc4-c4ccc(Cl)cc4)CC3)cc2)cc1S(=O)(=O)C(F)(F)F [AZD4320] + Nc1ccn([C@@H]2O[C@H](CO)[C@@H](O)C2(F)F)c(=O)n1 [Gemcitabine] (first compound max 1 µM, 7x7, partner max 0.3 µM) , Bliss excess: 0.0369

For COc1cc2ncnc(Nc3ccc(F)c(Cl)c3)c2cc1OCCCN1CCOCC1 [Gefitinib] + CC(C)n1c(=O)n(C)c2cnc3cc(F)c(-c4ccc(OCCCN5CCCCC5)nc4)cc3c21 [AZD1390] (first compound max 10 µM, 7x7, partner max 0.3 µM) the compound record lists Bliss excess as -0.0059

Reported Bliss excess of CC1(C)CCC(CN2CCN(c3ccc(C(=O)NS(=O)(=O)c4ccc(NCC5CCOCC5)c([N+](=O)[O-])c4)c(Oc4cnc5[nH]ccc5c4)c3)CC2)=C(c2ccc(Cl)cc2)C1 [Venetoclax] + Cc1cc2ncnn2cc1Nc1ncc2c(n1)n(C1CCOCC1)c(=O)n2C [AZD7648] (first compound max 1 µM, 7x7, partner max 10 µM) : -0.0371
